Biological target: T1, human PD-L1 on cells (human, UniProt Q9NZQ7 19-290)
T1 construct: Endogenous on MDA-MB-231 cells or transfected into HEK293FF cells (Sino Biological plasmid); the assay field says which; also called native PD-L1 on MDA-MB-231 cells; PD-L1 expressing MDA-MB-231 cells
T1 sequence (Q9NZQ7 19-290 limits assumed): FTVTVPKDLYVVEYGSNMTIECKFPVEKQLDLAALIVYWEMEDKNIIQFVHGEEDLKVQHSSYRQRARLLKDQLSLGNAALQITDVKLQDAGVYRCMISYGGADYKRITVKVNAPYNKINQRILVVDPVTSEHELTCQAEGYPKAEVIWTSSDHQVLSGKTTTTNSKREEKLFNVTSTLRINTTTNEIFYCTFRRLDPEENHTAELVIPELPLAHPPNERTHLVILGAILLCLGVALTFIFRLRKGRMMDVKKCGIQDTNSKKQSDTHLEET
Assay: flow cytometry on MDA-MB-231 cells, Krebs buffer; ratio of EC50 values
measurement.label: Ratio pH 6:7.4
Output spec: single numeric token, no unit.

>  <binder>
Fab 8G08 (Fab, V domains shown, Purified Fab prepared from IgG with the Pierce kit; also called 8G08 Fab) VH: QVQLVQSGGGVVQPGRSLRLSCAASGFTFSSYGMYWVRQAPGKGLEWVAVISYDGSNKYYADSVKGRFTISRDNSKNTLNLQMNSLRAEDTAVYYCAKGALTHWGVVIGDGMDVWGQGTTVTVSS VL: NFMLTQPHSVSESPGKTVTISCISNDVPASGHYHRWYQQRPGSSPTTVIYEDDQRPSGVPDRFSGSIDSSSNSASLTISGLKTEDEADYYCQSFDSTNPWVFGGGTKLTVL

>  <data.value>
8.35

$$$$

// moving on: another record for Ratio pH 6:7.4
Q. // lookup Ratio pH 6:7.4 for Fab 8D06 (Fab, V domains shown, Purified Fab prepared from IgG with the Pierce kit; also called 8D06 Fab) VH: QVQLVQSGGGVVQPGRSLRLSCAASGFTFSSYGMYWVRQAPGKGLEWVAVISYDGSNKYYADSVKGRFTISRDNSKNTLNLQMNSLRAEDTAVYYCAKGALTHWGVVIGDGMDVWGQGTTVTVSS VL: NFMLTQPHSVSESPGKTVTISCVLSPRTHAGHYYRWYQQRPGSSPTTVIYEDDQRPSGVPDRFSGSIDSSSNSASLTISGLKTEDEADYYCQSFDSTNPWVFGGGTKLTVL
A. 11
